These measurements were taken from paper PMC10449632.

tested on: ribosomes at the stop codon of MLIF-UAA mRNA in the presence of RF1; assay: Toeprinting assay on MLIF*-mRNA with RF1; type: biochemical, Escherichia coli; conditions: Fig 1f, RF1 (1X); 30 μM compound; MLIF*-mRNA; plotted values
No end group written: not given here. *: point of attachment. β‑D‑lactosyl = OC[C@H]1O[C@@H](O[C@H]2[C@H](O)[C@@H](O)[C@H](*)O[C@@H]2CO)[C@H](O)[C@@H](O)[C@H]1O; β‑D‑maltosyl = OC[C@H]1O[C@H](O[C@H]2[C@H](O)[C@@H](O)[C@H](*)O[C@@H]2CO)[C@H](O)[C@@H](O)[C@@H]1O; α‑D‑GlcNAc = CC(=O)N[C@@H]1[C@@H](O)[C@H](O)[C@@H](CO)O[C@@H]1*
measure_name: Relative stop band intensity signal
Simply state the number, no unit and no words.

Known results for substances:
INSERT INTO measurements (substance, reported_value) VALUES
  ('Dro3: drosocin derivative bearing β-D-Maltosyl on Thr11 (GKPRPYSPRPT(β‑D‑maltosyl)SHPRPIRV; UniProt P36193 22-40, looked up)', 0.2727),
  ('Dro4: drosocin derivative bearing α-D-GlcNAc on Thr11 (GKPRPYSPRPT(α‑D‑GlcNAc)SHPRPIRV; UniProt P36193 22-40, looked up)', 0.3375);

Consider the record given below.
Fill in: Relative stop band intensity signal on ribosomes at the stop codon of MLIF-UAA mRNA in the presence of RF1, entry Dro7: drosocin derivative bearing β-D-Lactosyl on Thr11 (GKPRPYSPRPT(β‑D‑lactosyl)SHPRPIRV; UniProt P36193 22-40, looked up)
0.1333

* * *

tested on: ribosomes at the stop codon of MLIF-UAA mRNA in the presence of RF1; assay: Toeprinting assay on MLIF*-mRNA with RF1; assay type: biochemical, Escherichia coli; conditions: Fig 1f, RF1 (1X); 30 μM compound; MLIF*-mRNA; plotted values
No end group written: not given here. *: point of attachment. β‑D‑cellobiosyl = OC[C@H]1O[C@@H](O[C@H]2[C@H](O)[C@@H](O)[C@H](*)O[C@@H]2CO)[C@H](O)[C@@H](O)[C@@H]1O; αGalNAc = CC(=O)N[C@@H]1[C@@H](O)[C@@H](O)[C@@H](CO)O[C@@H]1*; βGlc = OC[C@H]1O[C@@H](*)[C@H](O)[C@@H](O)[C@@H]1O
Lab note: anything with Relative stop band intensity signal below 0.2 is marked 1 (yes); values at 0.2 or higher are marked 0 (no).

INSERT INTO measurements (substance, assigned_class) VALUES
  ('Dro6: drosocin derivative bearing β-D-Glc on Thr11 (GKPRPYSPRPT(βGlc)SHPRPIRV; UniProt P36193 22-40, looked up)', '1 (yes)'),
  ('Dro: unmodified drosocin, 19 amino acid proline-rich antimicrobial peptide lacking O-glycosylation (GKPRPYSPRPTSHPRPIRV; Drosocin; UniProt P36193 22-40, looked up)', '0 (no)');

Lab log: compare recorded Relative stop band intensity signal with 0.2; is it strictly lower for Dro8: drosocin derivative bearing β-D-Cellobiosyl on Thr11 (GKPRPYSPRPT(β‑D‑cellobiosyl)SHPRPIRV; UniProt P36193 22-40, looked up) ?
1 (yes)

Lab log: compare recorded Relative stop band intensity signal with 0.2; is it strictly lower for Dro2: naturally occurring drosocin carrying disaccharide β-D-Gal(1→3)-α-D-GalNAc attached to Thr11 (GKPRPYSPRPTSHPRPIRV; not fully specified (residue 11); UniProt P36193 22-40, looked up) ?
0 (no)

Lab log: compare recorded Relative stop band intensity signal with 0.2; is it strictly lower for Dro1: naturally occurring drosocin carrying monosaccharide α-D-GalNAc attached to Thr11 (GKPRPYSPRPT(αGalNAc)SHPRPIRV; UniProt P36193 22-40, looked up) ?
0 (no)
